Tested on: lambsquarters
Assay: Test C pre-/postemergence test
Format: in vivo, Chenopodium album
Settings: 62 g ai/ha, Preemergence; scale 0 to 100
Give measured Lambsquarters plant response rating for each item. Keep answers brief.
// response body must contain only the number

What value of Lambsquarters plant response rating has been reported for the following compound? Cc1cc[n+]([O-])c(S(=O)(=O)Cc2c(C(F)(F)F)nn(C)c2OC(C)C(F)(F)F)c1 (stereo not drawn) 100

Endpoint output: Lambsquarters plant response rating of CCc1cc[n+]([O-])c([S+]([O-])Cc2c(C(F)(F)F)nn(C)c2OCC(F)(F)F)c1 (stereo not drawn) . Value? 100

Value lookup for Lambsquarters plant response rating; key = CC(C)c1cc[n+]([O-])c([S+]([O-])Cc2c(C(F)(F)F)nn(C)c2OC(F)F)c1 (stereo not drawn) 100

GET /values?readout=Lambsquarters plant response rating&item= Cn1nc(C(F)(F)F)c(C[S+]([O-])c2ccc(Cl)c[n+]2[O-])c1Cl (racemic) 100

Sample CC(Oc1c(C[S+]([O-])c2ccc(Cl)c[n+]2[O-])c(C(F)(F)F)nn1C)C(F)(F)F (stereo not drawn) — what was its Lambsquarters plant response rating? 85

Which Lambsquarters plant response rating reading was recorded for the compound CC(Oc1c(C[S+]([O-])c2cccc[n+]2[O-])c(C(F)(F)F)nn1C)C(F)(F)F (stereo not drawn) ? 100
